LAD (lowest active dose) for assorted compounds
tested on: Apomorphine-induced agitation in rats; test: Inhibition of apomorphine-induced agitation in rats (APO); conditions: rat, in vivo
RECORDED_ENDPOINT: LAD (lowest active dose)

COMPOUND | TARGET_ENTITY | RECORDED_ENDPOINT | READOUT_VALUE
COc1ccc(Cl)c(-c2nnc3c(C)nc4ccc(CN5CCOCC5)cc4n23)c1 [Compound B-10] | Apomorphine-induced agitation in rats | LAD (lowest active dose) | >10
Cc1nc2ccc(CN3CCOCC3)cc2n2c(-c3cc(F)ccc3Cl)nnc12 [Compound B-9] | Apomorphine-induced agitation in rats | LAD (lowest active dose) | 2.5
CCOc1ccc(Cl)c(-c2nnc3c(C)nc4ccc(CN(C)C)cc4n23)c1 [Compound B-18] | Apomorphine-induced agitation in rats | LAD (lowest active dose) | >10
Cc1nc2ccc(CN(C)C)cc2n2c(-c3ccccc3Cl)nnc12 [Compound B-13] | Apomorphine-induced agitation in rats | LAD (lowest active dose) | >10

---

tested on: d-Amphetamine-induced hyperlocomotion in rats; test: d-Amphetamine-induced hyperlocomotion in rats: potentiation of the effect of MP-10; assay type: in vivo, rat; conditions: SC, Time -60, dose 2.5; d-amphetamine (1.25 mg/kg, s.c.) + MP-10 (2.5 mg/kg, s.c.)
Counter-ions that a name gives are not always drawn.

COMPOUND | Distance Total <2500 cm Effect
Cc1nc2ccc(CN3CCOCC3)cc2n2c(-c3cc(OC(C)C)ccc3Cl)nnc12 | 1206 cm
Cc1nc2ccc(CN3CCOCC3)cc2n2c(-c3cncc(OCC4CC4)c3)nnc12 | 3061 cm
CCCCOc1ccc(Cl)c(-c2nnc3c(C)nc4ccc(CN(C)C)cc4n23)c1 | 3494 cm
CCCCOc1cncc(-c2nnc3c(C)nc4ccc(CN5CCOCC5)cc4n23)c1 [Compound B-1a, hydrochloride] | 1659 cm
Cc1nc2ccc(CN(C)C)cc2n2c(-c3cc(OC(C)C)ccc3Cl)nnc12 | 4133 cm
CCCCOc1cncc(-c2nnc3c(C)nc4ccc(CN(C)C)cc4n23)c1 | 4145 cm

---

target: Rat recombinant PDE10A (rPDE10A2) (Rattus norvegicus (Rat), UniProt Q9QYJ6); test: In vitro assay PDE10A (SPA, 3H-cAMP); type: biochemical; conditions: -log IC50 expressed in mol/L
Sequence (Q9QYJ6 whole entry): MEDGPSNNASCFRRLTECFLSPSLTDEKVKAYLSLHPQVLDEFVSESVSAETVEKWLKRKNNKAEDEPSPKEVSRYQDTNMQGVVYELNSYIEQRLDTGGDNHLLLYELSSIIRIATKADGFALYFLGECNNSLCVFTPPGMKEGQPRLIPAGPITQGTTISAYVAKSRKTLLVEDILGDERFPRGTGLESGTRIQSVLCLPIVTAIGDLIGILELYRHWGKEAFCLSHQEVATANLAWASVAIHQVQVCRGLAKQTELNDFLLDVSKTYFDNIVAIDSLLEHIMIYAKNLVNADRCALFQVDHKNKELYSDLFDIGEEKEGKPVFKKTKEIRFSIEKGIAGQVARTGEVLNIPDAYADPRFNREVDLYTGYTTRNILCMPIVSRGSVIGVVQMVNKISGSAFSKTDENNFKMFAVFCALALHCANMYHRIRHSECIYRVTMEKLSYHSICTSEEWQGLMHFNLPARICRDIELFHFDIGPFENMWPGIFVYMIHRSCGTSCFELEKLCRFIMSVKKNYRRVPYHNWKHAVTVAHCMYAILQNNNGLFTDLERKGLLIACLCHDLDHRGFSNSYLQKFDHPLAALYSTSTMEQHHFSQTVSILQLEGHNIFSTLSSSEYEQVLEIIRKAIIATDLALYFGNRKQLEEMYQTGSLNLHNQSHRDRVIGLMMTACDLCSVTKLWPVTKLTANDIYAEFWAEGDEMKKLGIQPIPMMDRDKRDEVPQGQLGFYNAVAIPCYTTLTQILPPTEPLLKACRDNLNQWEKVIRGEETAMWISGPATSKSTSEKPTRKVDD

MOLECULE | OP | PIC50 PDE10
CCCCOc1cc(-c2nnc3c(C)nc4ccc(CN5CCOCC5)cc4n23)cnc1Cl [Compound B-29] | < | 5
Cc1nc2ccc(CN3CCOCC3)cc2n2c(-c3cc(OC(C)C)ccc3Cl)nnc12 [Compound B-6] | = | 5.73
COc1ccc(Cl)c(-c2nnc3c(C)nc4ccc(CN5CCOCC5)cc4n23)c1 [Compound B-10] | = | 6.98
CCNCc1ccc2nc(C)c3nnc(-c4ccccc4Cl)n3c2c1 [Compound B-4] | = | 6.8
Cc1nc2ccc(CN3CCOCC3)cc2n2c(-c3ccccc3Cl)nnc12 [Compound B-3] | = | 7.47
CCCOc1ccc(Cl)c(-c2nnc3c(C)nc4ccc(CN5CCOCC5)cc4n23)c1 [Compound B-8] | = | 6.49
COc1cncc(-c2nnc3c(C)nc4ccc(CN5CCOCC5)cc4n23)c1 [Compound B-12] | = | 6.57
Cc1nc2ccc(CN(C)C)cc2n2c(-c3ccccc3Cl)nnc12 [Compound B-13] | = | 6.97
CCOc1ccc(Cl)c(-c2nnc3c(C)nc4ccc(CN5CCOCC5)cc4n23)c1 [Compound B-7] | = | 6.58
CCCOc1cncc(-c2nnc3c(C)nc4ccc(CN5CCOCC5)cc4n23)c1 [Compound B-16] | = | 5.21
Cc1nc2ccc(CN3CCOCC3)cc2n2c(-c3cc(F)ccc3Cl)nnc12 [Compound B-9] | = | 7.07
Cc1nc2ccc(CN3CCOCC3)cc2n2c(-c3cncc(OCC4CC4)c3)nnc12 [Compound B-26] | = | 5.44
CCCCOc1ccc(Cl)c(-c2nnc3c(C)nc4ccc(CN5CCOCC5)cc4n23)c1.Cl [Compound B-2] | = | 5.79

Reference source: patent US9669035B2
